tested on: OVCAR-5; assay: NCI tumour cell line growth inhibition, 48 h
Calls of active or inactive are those of the source. Cut-off read from the data, not from the text of the source: active = GI50 up to about 1.1 µM and inactive = higher. Where a SMILES comes first, the peptide text is derived from it. [ ]: non-standard residue; d: D form. Aoe = N[C@@H](CCCCCC(=O)[C@@H]1CO1)C(=O)O
PARAMETER MEASURED: GI50

// returns GI50 for "O=[N+]([O-])C(Cl)=C/C(=C(\Cl)SCc1ccccc1)[N+](=O)[O-]" with OVCAR-5; value = 23.7 µM (inactive)

S=C(Nc1ccccc1)Nc1ccccc1SC(/C=C/NNC1=NN=C(c2ccccc2)C(c2ccccc2)N1)c1ccccc1 (stereo not drawn) on OVCAR-5 gives GI50 = > 100 µM (inactive)

The value of GI50 recorded for "C/C=C(/C)C(=O)O[C@@H]1c2c(C)coc2C[C@H]2CC[C@H](O)[C@H](C)[C@]21C" when tested on OVCAR-5 reads > 100 µM (inactive)

OVCAR-5 assay, compound c1ccc2c(c1)SCCC2NC1=NCCO1 (stereo not drawn) , recorded GI50 = > 100 µM (inactive)

Sample COc1cc(C2c3cc4c(cc3OC(NNc3ccccc3)C2C)OCO4)cc(OC)c1O (stereo not drawn) , system: OVCAR-5. Its GI50 is 3.21 µM (inactive)

Field GI50 (OVCAR-5), entry "CCN(CCC#N)C(=O)Nc1ccccc1" : > 100 µM (inactive)

Noted GI50 for O=C1C2CCN(CC2)C1CN1CCOCC1 (stereo not drawn) , tested on OVCAR-5: 5.53 µM (inactive)

Sample CC(=O)NC1COC(COC(=O)CCCCCCCCCCNC(=O)c2ccc([N+](=O)[O-])c3c(=O)c4ccccc4[nH]c23)C(O)C1OC(C)C(=O)NC(C(=O)NC(CCC(N)=O)C(=O)OCc1ccccc1)C(C)C (stereo not drawn) , system: OVCAR-5. Its GI50 is 36 µM (inactive)

For "Cc1c2ccc3ccccc3c2c[n+]2ccccc12" on OVCAR-5, measured GI50 was 61.9 µM (inactive)

// GI50 (OVCAR-5) for OC(C1CCC=NN1C(O)(C(F)(F)F)C(F)(F)F)(C(F)(F)F)C(F)(F)F (stereo not drawn) = > 10 µM (inactive)

Param item: "[N-]=[N+]=Nc1ccc(CNc2cc(=O)[nH]c(=O)[nH]2)cc1" ; param system: OVCAR-5; output GI50: > 100 µM (inactive)

For the compound CCOC(=O)CCC(C(=O)OCC)n1nnc2ccc(Nc3c(C)[n+]([O-])c4cc(F)c(OCC)cc4[n+]3[O-])cc21 (stereo not drawn) , the measured GI50 on OVCAR-5 was > 100 µM (inactive)

Tested on OVCAR-5: O=C1N[C@@H](Cc2ccccc2)C(=O)N2CCC[C@@H]2C(=O)N[C@@H](CCCCCC(=O)[C@@H]2CO2)C(=O)N[C@H]1Cc1ccccc1 [TRAPOXIN B] (cyclo(FF[dP][Aoe])) . Observed GI50: 0.00197 µM (active)

Reported OVCAR-5 GI50 for item "CCOC(=O)/C=C1\c2ccccc2C(=O)N1CC(=O)OCC" was > 100 µM (inactive)

Item "O=[N+]([O-])c1ncc(N(CCO)CCO)s1" was tested on OVCAR-5; the reported GI50 is 78.5 µM (inactive)

Assay OVCAR-5, sample "CN(C)c1ccc(/C=N/n2c(-c3ccccc3)nc3ccccc3c2=O)cc1" , GI50 read: > 100 µM (inactive)

The recorded GI50 with OVCAR-5 for "Cc1ncc(CCl)c2c1OC(C)(C)OC2" was 22.3 µM (inactive)

Result for COC1/C=C/C(C)C(C(C)C(OC)C(C)CCC(=O)C(C)C(C/C=C/N(C)C=O)OC)OC(=O)/C=C/C=C(\C)CC(OC)C(OC)C2=CC(=O)O[C@@H](C(C)C(OC)CC(OC)/C=C/C(C)C(O)C1)[C@H]2O (stereo partly drawn) , tested on OVCAR-5, GI50: 0.163 µM (active)
